Reported Percent Effect by item:
- Target or system: Protein translocase subunit SecA (Escherichia coli (strain K12))
- Test name: Assay to Identify E. coli SecA ATPase Inhibitors
- Assay type: functional
- Design: scale not given: direction of the effect not stated beside the values
- Condition details: 30 µM
Potency and affinity values are given separately.
Please state the value followed by its unit.

# example entries with known answers
CCN1CCn2c(C)cnc2C12CCN(C(=O)CC(C)C)CC2 : -1.23%
CCCNC(=O)Cn1cc(-c2ccccc2)cn1 : -4.24%
CC(C)CN1CCN(C(=O)Nc2cc(C(F)(F)F)c[nH]c2=O)CC1 : -3.29%
Fc1ccc2c(c1)C(NCc1nnc3n1CCCCC3)CCCO2 (configuration not stated) : -2.96%
CC(C)OCCN1CCC(N2CCN(C)C2=O)CC1 : -8.32%

*Q* So what's the measured Percent Effect for this one? O=C(NCCN1CCNCC1)c1c(O)c2ccccc2[nH]c1=O
*A* 1.56%

*Q* Now the same for CC(=O)N1CCC(c2ccnc(Nc3cnccn3)n2)C1 (configuration not stated)
*A* -0.594%

*Q* Similarly, Cc1cc(C(C)C(=O)N2CCCN(Cc3cscn3)CC2)c(C)o1 (configuration not stated) ?
*A* -0.889%

*Q* Another compound to check: Cc1nc(CN2CCOC(CNc3cccnn3)C2)oc1C (configuration not stated)
*A* -1.3%

*Q* Proceed to O=C1CCCN1Cc1ncn2c1CN(C(=O)c1cccc(F)c1)CCC2
*A* -0.833%

*Q* Cn1cccc1C(=O)N1CCC2(CC1)CN(c1cncnc1)C(=O)CO2 ?
*A* -7.32%

*Q* Then this compound: O=C(Cn1cc(I)cn1)N1CCCC1
*A* 0.0934%

====

- Target or system: Tyrosyl-tRNA synthetase, putative (Trypanosoma cruzi (strain CL Brener)) (UniProt Q4DSP6)
- Test name: Trypanosoma cruzi tyrosyl tRNA synthetase (TcYRS) _High Tyrosine SOP; also: in the data most compounds retested in dose-response had high values
- Format: functional
- Design: scale not given: direction of the effect not stated beside the values
- Condition details: 30 µM
Measure: Percent Effect (%)
All answers are understood in %, so give the number only.

The cases that follow already have their Percent Effect on record.
O=C(Cc1ccccn1)N1CCC2(CC1)CC(Oc1ccccn1)CO2 (stereo unspecified) : 7.45
Cc1nc(Nc2ncccn2)cc(C2CCCN2CC(C)C)n1 (stereo unspecified) : 2.13
CC(C)NC(=O)c1ccc2c(c1)nc1n2CCN(c2ccccc2)C1 : 26.5

*Q* What measured Percent Effect goes with CC1(C)CC(N2Cc3nc(N)ncc3C2=O)CC(C)(C)N1 ?
*A* 6.45

*Q* For O=C(c1ccsc1)N1C[C@@H](CN2CCCC2)[C@@H](CO)C1 then?
*A* -1.64

*Q* # repeat for Cc1n[nH]c(C)c1C1CCCN1C(=O)NCC(=O)NC(C)(C)C (stereo unspecified)
*A* 1.07

*Q* Moving on to CC(C)N(C)Cc1cnc2n1CCN(C(=O)NC1CCCC1)C2
*A* 1.06

*Q* Next record, please: O=S(=O)(CCNCc1cccc2c1OCCO2)N1CCOCC1
*A* 5.82

*Q* Then what about the molecule CC(C)c1cc(NC(=O)CN2CCc3ccccc3C2)on1 ?
*A* 7.77

*Q* Record: Cc1nc(C)n(CC2CCCN(c3ncnc4sccc34)C2)n1 (stereo unspecified)
*A* 6.4

*Q* Ok, now O=c1nc(SCc2ccncc2)c2c(n1CCO)CCCC2
*A* 3.23

====

- Target or system: Chromo domain-containing protein 1 (Saccharomyces cerevisiae (strain ATCC 204508 / S288c) (Baker's yeast)) (UniProt P32657)
- Sequence (P32657 whole entry, the tested form may be a part): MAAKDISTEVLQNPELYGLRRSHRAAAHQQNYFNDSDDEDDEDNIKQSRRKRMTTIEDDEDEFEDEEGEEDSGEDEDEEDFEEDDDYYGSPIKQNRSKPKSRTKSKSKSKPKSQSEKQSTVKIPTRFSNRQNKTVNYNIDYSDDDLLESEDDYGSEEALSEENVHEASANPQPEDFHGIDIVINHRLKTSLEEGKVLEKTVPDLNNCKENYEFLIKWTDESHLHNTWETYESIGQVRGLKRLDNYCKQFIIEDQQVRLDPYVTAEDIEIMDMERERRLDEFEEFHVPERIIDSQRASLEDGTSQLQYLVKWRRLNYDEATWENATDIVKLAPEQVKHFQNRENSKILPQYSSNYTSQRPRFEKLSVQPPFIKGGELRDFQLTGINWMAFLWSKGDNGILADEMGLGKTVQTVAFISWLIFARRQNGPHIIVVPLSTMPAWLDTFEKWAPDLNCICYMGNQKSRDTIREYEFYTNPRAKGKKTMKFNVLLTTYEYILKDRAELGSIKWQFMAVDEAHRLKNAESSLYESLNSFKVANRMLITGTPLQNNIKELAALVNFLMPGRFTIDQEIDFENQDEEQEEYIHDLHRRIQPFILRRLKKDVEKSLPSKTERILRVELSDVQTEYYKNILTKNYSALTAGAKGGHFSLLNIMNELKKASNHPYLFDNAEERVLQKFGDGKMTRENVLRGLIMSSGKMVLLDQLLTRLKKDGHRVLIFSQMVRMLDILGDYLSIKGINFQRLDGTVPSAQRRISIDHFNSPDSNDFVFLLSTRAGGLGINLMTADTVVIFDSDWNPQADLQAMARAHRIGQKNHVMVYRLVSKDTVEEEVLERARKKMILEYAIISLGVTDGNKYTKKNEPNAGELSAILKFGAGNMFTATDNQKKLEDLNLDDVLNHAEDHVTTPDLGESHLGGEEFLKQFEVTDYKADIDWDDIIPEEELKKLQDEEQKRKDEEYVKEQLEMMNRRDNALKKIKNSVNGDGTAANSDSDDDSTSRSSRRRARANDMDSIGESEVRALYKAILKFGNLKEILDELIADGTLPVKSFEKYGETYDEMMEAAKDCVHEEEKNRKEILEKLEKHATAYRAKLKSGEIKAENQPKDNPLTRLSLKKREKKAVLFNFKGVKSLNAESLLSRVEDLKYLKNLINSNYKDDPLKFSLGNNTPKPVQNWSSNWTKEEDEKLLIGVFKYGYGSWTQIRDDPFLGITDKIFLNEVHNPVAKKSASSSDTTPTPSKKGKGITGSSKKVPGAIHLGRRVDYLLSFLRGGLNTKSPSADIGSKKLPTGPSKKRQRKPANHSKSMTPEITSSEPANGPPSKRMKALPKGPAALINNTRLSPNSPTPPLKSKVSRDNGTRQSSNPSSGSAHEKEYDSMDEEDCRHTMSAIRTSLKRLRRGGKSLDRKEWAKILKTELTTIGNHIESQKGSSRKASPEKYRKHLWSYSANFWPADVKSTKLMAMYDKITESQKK
- Test name: ScCHD-1 Enzyme Inhibition Assay; also: in the data most compounds retested in dose-response had high values
- Assay type: functional
- Design: scale not given: direction of the effect not stated beside the values
- Condition details: 30 µM
Measure: Percent Effect
Note: state the figure and append the unit.

O=C(c1cnn(-c2ccccc2F)c1)N1CCN(CCO)CC1 : -1.23%
Cc1nc(CN2CCC(N(C)Cc3noc(C(C)C)n3)C2)cs1 (stereo not given) : -4.7%
CC(=O)Nc1cccc(OCCNC(=O)N(C)Cc2ccco2)c1 : -3.97%
CN(C)CCCNC(=O)c1cc(Br)c2c(c1)OCCO2 : -7.32%

*Q* Quick one: Percent Effect for CC(C)c1ncc2c(n1)CN(Cc1cccc(C#N)c1)CC2 ?
*A* 2.88%

====

- Target or system: Sialic acid-binding Ig-like lectin 9 (Homo sapiens) (UniProt Q9Y336)
- Sequence (Q9Y336 whole entry): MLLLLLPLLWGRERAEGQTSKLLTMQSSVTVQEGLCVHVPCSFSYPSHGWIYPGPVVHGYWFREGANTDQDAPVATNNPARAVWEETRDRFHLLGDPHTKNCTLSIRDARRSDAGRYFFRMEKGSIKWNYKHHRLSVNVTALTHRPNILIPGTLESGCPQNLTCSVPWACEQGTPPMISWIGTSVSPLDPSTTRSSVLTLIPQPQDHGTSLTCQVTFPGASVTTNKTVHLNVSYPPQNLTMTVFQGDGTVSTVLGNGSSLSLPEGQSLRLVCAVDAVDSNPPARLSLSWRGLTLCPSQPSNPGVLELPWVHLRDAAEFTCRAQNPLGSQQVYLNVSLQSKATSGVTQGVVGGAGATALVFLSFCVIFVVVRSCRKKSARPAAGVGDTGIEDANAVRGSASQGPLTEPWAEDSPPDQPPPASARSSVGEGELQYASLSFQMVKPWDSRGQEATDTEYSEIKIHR
- Test name: Hs-Siglec9 ALPHAscreen SOP 20170721
- Parameters: scale not given: direction of the effect not stated beside the values
- Condition details: 10 µM
Measure: Percent Effect (%)
A number alone suffices; assume %.

Solved entries:
CCS(=O)(=O)NC[C@]12COC[C@H]1CN(Cc1cccc(OC)c1)C2 : 5.65
Cc1c(NC(=O)NCC(C)N2CCOCC2)cccc1OC(F)F (configuration not stated) : 0.607
CN(C)c1ccc(CCCNC(=O)Nc2ccc(C#N)cc2)cc1 : 11.1
Cc1nc(CN2CCN(C(=O)c3cc(C4CC4)on3)CC2)cs1 : 3.64
NC(=O)Cc1ccc(NC(=O)C2CCOCC2)cc1 : -1.1
COc1cc(C(=O)NS(=O)(=O)c2cccc(C#N)c2)ccc1C : 1.78

*Q* Requested field: Percent Effect. Item: Cc1cc(C[S+]([O-])CC(=O)NCc2cccs2)no1 (configuration not stated)
*A* 10.1

*Q* What do you have for CC(=O)N1CCCC1c1cccc(Cc2ccccc2F)n1 (configuration not stated) ?
*A* -1.05

*Q* // next record CCc1noc(C)c1C(=O)N1CCCC1Cn1cc(C)cn1 (configuration not stated)
*A* -9.39

*Q* And Cc1csc(CNC(=O)NCCc2ccc3c(c2)OCCO3)n1 ?
*A* -16.2

*Q* How about this compound: CCC(CNC(=O)Nc1cnn(CC)c1)N1CCCC1 (configuration not stated)
*A* -3.26

*Q* Another: CCC(C)c1noc(C2CCN(C(=O)c3cccs3)CC2)n1 (configuration not stated)
*A* 3.86

====

Reported Percent Effect by item:
- Target or system: Ubiquitin-activating enzyme e1, putative (Leishmania donovani (strain BPK282A1))
- Test name: Leishmania donovani Ubiquitin Activating Enzyme (LdE1)
- Type: functional
- Parameters: scale not given: direction of the effect not stated beside the values
- Condition details: 30 µM
Entries with a potency or affinity are not part of this list.

*Q* State the recorded Percent Effect for this entry: O=C(C1CCCc2[nH]ncc21)N1CCCCCC1 (stereo not drawn)
*A* 5.41%

====

- Target or system: Chromo domain-containing protein 1 (Saccharomyces cerevisiae (strain ATCC 204508 / S288c) (Baker's yeast)) (UniProt P32657)
- Test name: ScCHD-1 Enzyme Inhibition Assay; also: in the data most compounds retested in dose-response had high values
- Type: functional
- Design: scale not given: direction of the effect not stated beside the values
- Condition details: 30 µM
Listed below: Percent Effect values for each entry.

Some solved entries appear below for comparison.
CC1CCN(Cn2nc(-c3ccc(F)cc3)oc2=O)CC1 : -12.6%
CCc1n[nH]c(C2CN(CCc3cccs3)CCO2)n1 (stereo not drawn) : -43.9%
CCOCC(O)CN1CCN(C(=O)CC(C)(C)C)CC1 (stereo not drawn) : 1.7%
Cc1cc(C[S+]([O-])CC(=O)NCc2cccs2)no1 (stereo not drawn) : -5.87%

*Q* Sample Cc1cccc(NC(=O)CNC(=O)Cn2ncc(Cl)c(Cl)c2=O)c1C — what was its Percent Effect?
*A* 7.2%

====

// reported Percent Effect for each item listed
- Target or system: Arginase-2, mitochondrial (Homo sapiens)
- Test name: in vitro enzyme assay to detect the production of urea directly proportional to the activity of Arginase II; also: in the data most compounds retested in dose-response had high values
- Type: functional
- Design: scale not given: direction of the effect not stated beside the values
- Condition details: 33.3 µM
A number alone suffices; assume %.

In the examples that follow, each entry is paired with its recorded Percent Effect.
CSCC(=O)N1CCC2(CC1)c1ccccc1CC2O (configuration not stated) : -4.14
CC(=O)N1CCC[C@H]1C(=O)NCCOc1cccc(Cl)c1 : 4.98
Cc1noc([C@@]23CCO[C@@H]2CCN(C(=O)C2CCOCC2)C3)n1 : -51.8
CNc1nc(CNC(=O)Nc2ccccc2-c2noc(C)n2)cs1 : -1.92
COc1ccc(NC(=O)CCC2CCCN(Cc3ncon3)C2)c(C)c1 (configuration not stated) : -3.65

*Q* Report Percent Effect for CCCNC(=O)CN1CCN(Cc2csc(C(C)(C)C)n2)CC1 please.
*A* -1.14

*Q* Would you mind doing Cn1cc(CN(Cc2ccccc2)CC(O)c2cccs2)cn1 (configuration not stated) as well?
*A* -1.74

====

Items are presented alongside their recorded Percent Effect.
- Target or system: Tyrosyl-tRNA synthetase, putative (Trypanosoma cruzi (strain CL Brener))
- Sequence (whole entry): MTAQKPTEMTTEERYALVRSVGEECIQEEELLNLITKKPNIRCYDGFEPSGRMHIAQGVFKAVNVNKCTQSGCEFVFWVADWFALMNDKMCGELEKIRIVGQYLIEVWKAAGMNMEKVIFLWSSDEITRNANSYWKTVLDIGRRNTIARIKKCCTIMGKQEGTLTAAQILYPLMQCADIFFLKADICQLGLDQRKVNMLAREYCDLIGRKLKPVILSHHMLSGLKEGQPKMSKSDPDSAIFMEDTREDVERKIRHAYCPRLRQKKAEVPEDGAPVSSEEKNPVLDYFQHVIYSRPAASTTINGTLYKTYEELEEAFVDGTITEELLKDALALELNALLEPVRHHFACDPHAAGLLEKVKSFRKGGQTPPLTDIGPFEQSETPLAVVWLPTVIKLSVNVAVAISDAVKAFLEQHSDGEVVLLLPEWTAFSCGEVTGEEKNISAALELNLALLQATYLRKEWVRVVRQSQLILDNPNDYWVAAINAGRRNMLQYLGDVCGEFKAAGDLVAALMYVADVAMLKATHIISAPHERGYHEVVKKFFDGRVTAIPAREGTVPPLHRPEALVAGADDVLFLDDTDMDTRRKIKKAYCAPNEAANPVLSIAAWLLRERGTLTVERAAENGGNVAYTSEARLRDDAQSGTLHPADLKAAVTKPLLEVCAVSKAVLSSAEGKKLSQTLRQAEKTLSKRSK
- Test name: Trypanosoma cruzi tyrosyl tRNA synthetase (TcYRS) _High Tyrosine SOP; also: in the data most compounds retested in dose-response had high values
- Format: functional
- Parameters: scale not given: direction of the effect not stated beside the values
- Condition details: 30 µM
Quick reminder: number only, in %, skip the unit.

Guide cases for Percent Effect, answers given:
COCCN(Cc1nc2c(cnn2C)c(=O)[nH]1)Cc1ccco1 : 9.36
COCC1CN(Cc2ccc(C)o2)Cc2ncn(CC3CC3)c21 (centres undefined) : 1.07
Cc1cn2nc(N3CCCC3CC(C)(C)C)sc2n1 (centres undefined) : 3.12
CCN1CCCN(C(=O)c2cnc(OC(C)C)c(Cl)c2)CC1 : 1.04
CCN1CCN(c2ncc(-c3cc(C)no3)c(-c3ccoc3C)n2)CC1 : 2.15
O=C([C@H]1COC[C@H]2CN(C3CCCC3)C[C@H]21)N1CCCCO1 : 0
COc1ccc(-n2ccc(C(=O)NCCN3CCCCC3C)n2)cc1 (centres undefined) : 1.48
O=C(C1CCS(=O)(=O)C1)N1CCN(c2cnccn2)CC1 (centres undefined) : 5.94

*Q* # lookup: Percent Effect of CNc1cc(N2CCCC2CNCc2c[nH]nc2C(C)(C)C)ncn1 (centres undefined)
*A* 5.94

*Q* Record: COc1cc2nc3n(c(=O)c2cc1OC)CCN(C(C)=O)CC3
*A* 1.07

*Q* Now this one: CN(C)c1ccc(CCCNC(=O)Nc2ccc(C#N)cc2)cc1
*A* 5.82

*Q* Now consider Cn1cc(C[C@H]2[C@H](O)CCN2CC2CC2)cn1 .
*A* 5.41

*Q* What would you report for c1ccc(-c2nccc(CNCC3CCCN3c3cccnn3)n2)cc1 (centres undefined) ?
*A* 6.37

*Q* Param item: CCn1cnnc1CNC(=O)NCC(c1cccs1)N1CCCC1 (centres undefined)
*A* 5.83
